Tested Target: hERG K+ channels (Homo sapiens (Human), UniProt Q12809)
Sequence (Q12809 whole entry): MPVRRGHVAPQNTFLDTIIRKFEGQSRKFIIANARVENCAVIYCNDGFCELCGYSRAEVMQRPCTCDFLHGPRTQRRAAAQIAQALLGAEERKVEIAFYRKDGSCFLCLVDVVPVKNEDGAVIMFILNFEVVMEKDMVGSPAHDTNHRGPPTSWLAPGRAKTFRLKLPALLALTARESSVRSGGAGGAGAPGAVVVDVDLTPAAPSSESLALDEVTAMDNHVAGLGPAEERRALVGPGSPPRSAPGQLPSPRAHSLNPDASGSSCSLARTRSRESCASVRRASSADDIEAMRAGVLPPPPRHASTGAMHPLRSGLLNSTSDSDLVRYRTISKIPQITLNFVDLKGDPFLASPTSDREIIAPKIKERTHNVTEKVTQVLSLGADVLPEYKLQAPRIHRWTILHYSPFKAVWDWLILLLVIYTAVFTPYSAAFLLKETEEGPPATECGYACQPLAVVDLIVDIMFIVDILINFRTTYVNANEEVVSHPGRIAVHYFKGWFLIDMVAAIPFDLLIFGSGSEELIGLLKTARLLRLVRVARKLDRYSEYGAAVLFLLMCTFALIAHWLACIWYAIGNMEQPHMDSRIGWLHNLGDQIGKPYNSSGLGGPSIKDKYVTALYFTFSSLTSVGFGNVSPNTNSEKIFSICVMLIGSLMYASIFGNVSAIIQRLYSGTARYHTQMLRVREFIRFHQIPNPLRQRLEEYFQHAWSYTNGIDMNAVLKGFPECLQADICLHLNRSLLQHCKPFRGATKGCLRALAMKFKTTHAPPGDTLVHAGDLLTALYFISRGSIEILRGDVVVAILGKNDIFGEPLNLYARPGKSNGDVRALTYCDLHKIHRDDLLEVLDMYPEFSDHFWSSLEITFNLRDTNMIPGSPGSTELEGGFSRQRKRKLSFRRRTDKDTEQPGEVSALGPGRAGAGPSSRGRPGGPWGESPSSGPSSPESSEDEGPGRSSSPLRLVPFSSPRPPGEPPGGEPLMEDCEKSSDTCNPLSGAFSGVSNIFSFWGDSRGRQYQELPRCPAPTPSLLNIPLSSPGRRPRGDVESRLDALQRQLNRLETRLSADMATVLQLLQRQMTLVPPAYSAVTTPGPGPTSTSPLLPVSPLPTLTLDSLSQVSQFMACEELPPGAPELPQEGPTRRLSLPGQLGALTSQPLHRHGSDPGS
Method Summary: hERG channel inhibition assay (patch-clamp, CHOhERG cells)
Type: cell-based
Test Parameters: safety ratio
Threshold rule: hERG IC20/TLR7 IC50 greater than or equal to 8 is Criterion met; below that, Criterion not met.

(Q) Is hERG IC20/TLR7 IC50 for C[C@@H]1CN(c2ccc(C#N)c3ncccc23)C[C@H](CN2CCN(c3ccccn3)CC2)O1 at or above 8?
(A) Criterion met

(Q) Can C[C@@H]1CN(c2ccc(C#N)c3ncccc23)C[C@H](CN2CCN(c3ccc(Cl)cc3)CC2)O1 be said to have hERG IC20/TLR7 IC50 at or above 8?
(A) Criterion not met

(Q) Given the entry COc1ccc(N2CCN(C[C@H]3CN(c4ccc(C#N)c5ncccc45)C[C@@H](C)O3)CC2)cc1 , answer whether its hERG IC20/TLR7 IC50 meets or surpasses 8.
(A) Criterion met

(Q) Dear colleague, could you confirm whether C[C@@H]1CN(c2ccc(C#N)c3ncccc23)C[C@H](CN2CCN(c3ccncc3)CC2)O1 has hERG IC20/TLR7 IC50 at or above 8?
(A) Criterion not met

* * *

Tested Target: hERG K+ channels (Homo sapiens (Human), UniProt Q12809)
Method Summary: hERG channel inhibition assay (patch-clamp, CHOhERG cells)
Type: cell-based
Test Parameters: safety ratio
Quick rule for you: hERG IC20/TLR9 IC50 at 0.2 or higher means 1 (yes), lower means 0 (no).

(Q) hERG IC20/TLR9 IC50 >= 0.2 for C[C@@H]1CN(c2ccc(C#N)c3ncccc23)C[C@H](CN2CCN(c3ccccc3)CC2)O1 ?
(A) 1 (yes)

(Q) Test whether the molecule C[C@@H]1CN(c2ccc(C#N)c3ncccc23)C[C@H](CN2CCN(c3ccccn3)CC2)O1 records hERG IC20/TLR9 IC50 of 0.2 or higher.
(A) 1 (yes)

(Q) hey, is hERG IC20/TLR9 IC50 for this one >= 0.2? COc1ccc(N2CCN(C[C@H]3CN(c4ccc(C#N)c5ncccc45)C[C@@H](C)O3)CC2)cc1
(A) 0 (no)

(Q) Dear colleague, could you confirm whether C[C@@H]1CN(c2ccc(C#N)c3ncccc23)C[C@H](CN2CCN(c3ccc(Cl)cc3)CC2)O1 has hERG IC20/TLR9 IC50 at or above 0.2?
(A) 0 (no)

(Q) Entry C[C@@H]1CN(c2ccc(C#N)c3ncccc23)C[C@H](CN2CC3(C2)CN(c2cnc4c(n2)CCNC4)CCO3)O1 : is its hERG IC20/TLR9 IC50 no less than 0.2?
(A) 1 (yes)

* * *

Method Summary: Human microsome stability assay
Assay type: in vitro ADME
Test Parameters: 1 μM test compound, 0.5 mg/mL liver microsomal protein
Test Readout: Clearance of Human microsome (L/h/kg)
Express it in L/h/kg; write the number only.

(Q) Please look at this molecule and report its Clearance of Human microsome: [2H]c1ccc2c(N3C[C@H](CN4CCN(c5ccc6c(n5)CN[C@@H]6C)CC4)O[C@H](C)C3)ccc(C#N)c2n1
(A) 0.481

(Q) Please list Clearance of Human microsome recorded for the molecule [2H]c1nc2c(C#N)ccc(N3C[C@H](CN4CCN(c5cc6c(cn5)[C@@H](C)NCC6)CC4)O[C@H](C)C3)c2nc1[2H]
(A) 0.428

(Q) State its Clearance of Human microsome: [2H]c1nc2c(C#N)ccc(N3C[C@H](CN4CCN(c5ccc6c(n5)CN[C@H]6C)CC4)O[C@H](C)C3)c2nc1[2H]
(A) 0.374

(Q) Hello, please tell me recorded Clearance of Human microsome for this one: [2H]c1ccc2c(N3C[C@H](CN4CCN(c5ccc6c(n5)CN[C@H]6C)CC4)O[C@H](C)C3)ccc(C#N)c2n1
(A) 0.379

(Q) State its Clearance of Human microsome: C[C@@H]1CN(c2ccc(C#N)c3ncccc23)C[C@H](CN2CCN(c3ccc4c(n3)CN[C@H]4C)CC2)O1
(A) 0.369

(Q) Give Clearance of Human microsome for the following molecule: [2H]c1nc2c(C#N)ccc(N3C[C@H](CN4CCN(c5ccc6c(n5)CN[C@@H]6C)CC4)O[C@H](C)C3)c2nc1[2H]
(A) 0.369
